Tested on: Foxtail, Giant (giant foxtail, Setaria faberi)
Assay: Test A1 preemergence, Foxtail, Giant
Type: in vivo
Conditions: 31 g ai/ha, 0 to 100 scale (0 no effect, 100 complete control)
assay metric: Plant response rating, Foxtail, Giant
I'd appreciate a reply containing only the number, no unit.

Sample records with Plant response rating, Foxtail, Giant:
Q: Quickly give me recorded Plant response rating, Foxtail, Giant for CCOC(=O)N(c1cc(C(=O)N2CCOCC2)c(C)cc1C)S(=O)(=O)C(F)(F)F
Ans: 90

Q: Quickly give me recorded Plant response rating, Foxtail, Giant for Cc1cc(C)c(N(C(=O)OC(C)C)S(=O)(=O)C(F)(F)F)cc1C1=NOC2CCCC12 (stereo not drawn)
Ans: 0

Q: Quickly give me recorded Plant response rating, Foxtail, Giant for Cc1cc(C)c(N(COC(=O)C(C)(C)C)S(=O)(=O)C(F)(F)F)cc1C(=O)N1CCC(c2ccccc2)CC1
Ans: 0

Others:
Q: Quickly give me recorded Plant response rating, Foxtail, Giant for Cc1c(C2=NO[C@@H]3CCC[C@H]23)cc(N(COC(=O)C(C)(C)C)S(=O)(=O)C(F)(F)F)c(C)c1C
Ans: 20

Q: Quickly give me recorded Plant response rating, Foxtail, Giant for Cc1cc(C)c(C2=NOC3OCCCC23)cc1NS(=O)(=O)C(F)(F)F (stereo not drawn)
Ans: 90

Q: Quickly give me recorded Plant response rating, Foxtail, Giant for Cc1cc(C)c(N(COC(=O)C(C)(C)C)S(=O)(=O)C(F)(F)F)cc1C1=NOC2CCCCCC12 (single isomer, unassigned)
Ans: 0

Q: Quickly give me recorded Plant response rating, Foxtail, Giant for Cc1c(NS(=O)(=O)C(F)(F)F)cc(C(=O)N2CC(C)OC(C)C2)c(C)c1C (stereo not drawn) [Compound 328]
Ans: 20

Q: Quickly give me recorded Plant response rating, Foxtail, Giant for C#CCN(C)C(=O)c1cc(NS(=O)(=O)C(F)(F)F)c(C)c(C)c1C
Ans: 90

Q: Quickly give me recorded Plant response rating, Foxtail, Giant for CCc1cc(C)c(C2=NOC3(CCCC3)C2)cc1NS(=O)(=O)C(F)(F)F
Ans: 0

Q: Quickly give me recorded Plant response rating, Foxtail, Giant for Cc1c(NS(=O)(=O)C(F)(F)F)cc(C2=NOC3CCCC23)c(C)c1C (stereo not drawn)
Ans: 60

Q: Quickly give me recorded Plant response rating, Foxtail, Giant for Cc1cc(C2CC2)c(NS(=O)(=O)C(F)(F)F)cc1C1=NOC2(CCCC2)C1
Ans: 0

Q: Quickly give me recorded Plant response rating, Foxtail, Giant for Cc1cc(C)c(N(COC(=O)C(C)(C)C)S(=O)(=O)C(F)(F)F)cc1C1=NOC2COCC12 (stereo not drawn)
Ans: 10

Q: Quickly give me recorded Plant response rating, Foxtail, Giant for Cc1cc(C)c(C2=NOC3COCC23)cc1NS(=O)(=O)C(F)(F)F (stereo not drawn)
Ans: 80

Q: Quickly give me recorded Plant response rating, Foxtail, Giant for C#CCN(C)C(=O)c1cc(NS(=O)(=O)C(F)(F)F)c(Cl)c(F)c1C
Ans: 20

Q: Quickly give me recorded Plant response rating, Foxtail, Giant for Cc1cc(C)c(N2Cc3cccc(C)c3C2=O)cc1NS(=O)(=O)Cl
Ans: 100
